- Test system: A549 NSCLC
- test summary: NCI tumour cell line growth inhibition, 48 h
measurement type: TGI

Solved cases below.
compound: O=C1C(Cl)C(c2ccccc2)N1n1cnc2ccccc2c1=O (stereo not given)
measurement type: TGI
result: > 100 µM
//
compound: Cc1cc(C)cc(C(=N)c2ccccc2Cc2cccc3ccccc23)c1
measurement type: TGI
result: 42.4 µM
//
compound: CCOC(=O)c1[nH]c(COC(C)=O)c(CCCOC(C)=O)c1CCCOC(C)=O
measurement type: TGI
result: > 100 µM
//
compound: O=C(O)c1cc(O)c2c(c1)C(C1c3cc(C(=O)O)cc(O)c3C(=O)c3c(OC4OC(CO)C(O)C(O)C4O)cccc31)c1cccc(OC3OC(CO)C(O)C(O)C3O)c1C2=O (stereo not given)
measurement type: TGI
result: > 100 µM
//
compound: CCOC(=O)C1=C(C)N(N)C(=S)NC1c1ccc(C)cc1 (stereo not given)
measurement type: TGI
result: > 100 µM

Entry under test: CC(=O)c1csc2c1C(=O)c1scc(C(C)=O)c1C2=O . Its TGI was 4.19 µM

Entry under test: CCN1C(=O)N(CC)C2C1NC(=S)N2/N=C/C=C/c1cccs1 (stereo not given) . Its TGI was > 100 µM

Entry under test: O=C1/C(=C\c2ccc([N+](=O)[O-])o2)SC2N=C(COc3ccc(Cl)cc3)NN12 (stereo not given) . Its TGI was 38.4 µM

Entry under test: C#CCn1ncc2c(SCc3ccccc3)ncnc21 . Its TGI was > 100 µM

Entry under test: CC(=O)O[C@@H]1C[C@]2(C(C)C)O[C@@]1(C)[C@@H]1CCC(C)=C1[C@@H]2OC(=O)/C=C/c1ccccc1 . Its TGI was > 100 µM

---

- Tested on: HOP-62 NSCLC
- test summary: NCI tumour cell line growth inhibition, 48 h
Listed next: entries and their corresponding TGI.
Report only the number, with the unit µM understood.

compound: C=CCNC1=C2C[C@@H](C)C[C@@H](OC)[C@@H](OC(=O)CCCN)[C@H](C)/C=C(\C)[C@@H](OC(N)=O)[C@H](OC)/C=C\C=C(/C)C(=O)NC(=CC1=O)C2=O
TGI, µM: 18.9

# input for lookup
Entry under test: CC(C)c1ccccc1S(=O)c1ccccc1C(C)(C)O (centres undefined) . Its TGI was 48.7

---

Listed next: entries and their corresponding TGI.
- System: OVCAR-3 ovarian
- test summary: NCI tumour cell line growth inhibition, 48 h

Entry under test: COC(=O)C12C3C4C5(C(=O)OC)C(C1C35C(=O)N(C(C)C)C(C)C)C42C(=O)N(C(C)C)C(C)C (stereo not given) . Its TGI was > 50 µM

Entry under test: CCOC(=O)N1CCN(C(=O)c2ccc(C(F)(F)F)nc2Nc2cc(Cl)ccc2C)CC1 . Its TGI was 47.2 µM

Entry under test: Nc1nc(Nc2ccccc2)c2ncn(Cc3cc4c(cc3Br)OCO4)c2n1 . Its TGI was 0.237 µM

Entry under test: CN(C)C1=Nc2ccccc2C(=S)N2CSCC12 (stereo not given) . Its TGI was > 100 µM

Entry under test: CC(=O)c1sc2c(c1OC(=O)c1cccs1)c(=O)n(-c1ccccc1)c(=S)n2-c1ccccc1 . Its TGI was 50.4 µM

Entry under test: CNC(=S)N/N=C(C)\C(=N/NC(=S)NC)c1ccccc1 . Its TGI was > 100 µM

Entry under test: CCOC(=O)c1nc2c(Cl)c3ncccc3cc2[nH]c1=O . Its TGI was > 100 µM

Entry under test: CN(Nc1cc(=O)[nH]c(=O)[nH]1)c1ccccc1 . Its TGI was > 100 µM

Entry under test: CCN1CCN(c2ccc(Nc3ccnc4ccc5nn(C)nc5c34)cc2)CC1 . Its TGI was 29.5 µM

Entry under test: N#Cc1c(-c2ccccc2)[nH]c2ccccc2c1=O . Its TGI was > 100 µM

Entry under test: CCOC(=O)c1[nH]c(COC(C)=O)c(CCCOC(C)=O)c1CCCOC(C)=O . Its TGI was > 100 µM

Entry under test: Nc1c(C(=O)N/N=C/c2ccc(-c3ccc(Cl)cc3)o2)cnn1-c1ccnc2c(C(F)(F)F)cccc12 . Its TGI was > 100 µM
